Value source: patent US20250074920A1

Tested on: ABL1(Y253F)-phosphorylated
MEASUREMENT_PROTOCOL: KINOMEscan kinase binding assay
REPORTED_CONDITIONS: at 1 μM
Respond with Fulfilled for % Ctrl values of 70% and above, Not fulfilled for values below.

molecule="Cc1cc2c([nH]1)/C=C1\\C(=O)Nc3c(Cl)cc(cc31)-c1cn(C)nc1COC[C@@H](C)N(C)C2=O [Cpd. 5]" category=Fulfilled
molecule="Cc1cc2c([nH]1)/C=C1\\C(=O)Nc3ccc(cc31)-c1c(nn(C)c1C)OCCCN(C)C2=O [Cpd. 1]" category=Fulfilled
molecule="Cc1cc2c([nH]1)/C=C1\\C(=O)Nc3ccc(cc31)-c1c(nn(C)c1C)COCCN(C)C2=O [Cpd. 2]" category="Not fulfilled"
molecule="C[C@@H]1COCc2nn(C)cc2-c2cc(Cl)c3c(c2)/C(=C/c2[nH]ccc2C(=O)N1)C(=O)N3 [Cpd. 4]" category=Fulfilled
molecule="Cc1cc2c([nH]1)/C=C1\\C(=O)Nc3c(Cl)cc(cc31)-c1cn(C)nc1COC[C@@H](C)NC2=O [Cpd. 3]" category=Fulfilled

---

System: PDGFRB
MEASUREMENT_PROTOCOL: KINOMEscan kinase binding assay
REPORTED_CONDITIONS: at 1 μM
Listed here are compounds together with their documented % Ctrl.
ASSAY_ENDPOINT: % Ctrl (%)

compound="Cc1cc2c([nH]1)/C=C1\\C(=O)Nc3c(Cl)cc(cc31)-c1cn(C)nc1COC[C@@H](C)N(C)C2=O [Cpd. 5]" readout_number=100
compound="Cc1cc2c([nH]1)/C=C1\\C(=O)Nc3ccc(cc31)-c1c(nn(C)c1C)COCCN(C)C2=O [Cpd. 2]" readout_number=79
compound="C[C@@H]1COCc2nn(C)cc2-c2cc(Cl)c3c(c2)/C(=C/c2[nH]ccc2C(=O)N1)C(=O)N3 [Cpd. 4]" readout_number=100
compound="Cc1cc2c([nH]1)/C=C1\\C(=O)Nc3c(Cl)cc(cc31)-c1cn(C)nc1COC[C@@H](C)NC2=O [Cpd. 3]" readout_number=100
compound="Cc1cc2c([nH]1)/C=C1\\C(=O)Nc3ccc(cc31)-c1c(nn(C)c1C)OCCCN(C)C2=O [Cpd. 1]" readout_number=100

---

System: EGFR
MEASUREMENT_PROTOCOL: KINOMEscan kinase binding assay
REPORTED_CONDITIONS: at 1 μM
ASSAY_ENDPOINT: % Ctrl (%)

smiles_structure=Cc1cc2c([nH]1)/C=C1\C(=O)Nc3c(Cl)cc(cc31)-c1cn(C)nc1COC[C@@H](C)NC2=O readout_number=79
smiles_structure=Cc1cc2c([nH]1)/C=C1\C(=O)Nc3ccc(cc31)-c1c(nn(C)c1C)COCCN(C)C2=O readout_number=66
smiles_structure=Cc1cc2c([nH]1)/C=C1\C(=O)Nc3c(Cl)cc(cc31)-c1cn(C)nc1COC[C@@H](C)N(C)C2=O readout_number=96
smiles_structure=C[C@@H]1COCc2nn(C)cc2-c2cc(Cl)c3c(c2)/C(=C/c2[nH]ccc2C(=O)N1)C(=O)N3 readout_number=82
smiles_structure=Cc1cc2c([nH]1)/C=C1\C(=O)Nc3ccc(cc31)-c1c(nn(C)c1C)OCCCN(C)C2=O readout_number=100

---

MEASURED_ON: TYK2(JH2domain-pseudokinase)
MEASUREMENT_PROTOCOL: KINOMEscan kinase binding assay
REPORTED_CONDITIONS: read-out: TYK2(JH2 domain-pseudokinase) Kd
Listed here are compounds together with their documented log10(Kd).
ASSAY_ENDPOINT: log10(Kd) (log10 of the value in µM)

compound="Cc1cc2c([nH]1)/C=C1\\C(=O)Nc3c(F)cc(cc31)-c1cn(C)nc1COC[C@@H](C)N(C)C2=O [compound 13]" assay_endpoint=log10(Kd) readout_number=-3.00
compound="Cc1cc2c([nH]1)/C=C1\\C(=O)Nc3c(C#N)cc(cc31)-c1cn(C)nc1COC[C@@H](C)N(C)C2=O [Cpd. 10]" assay_endpoint=log10(Kd) readout_number=-1.34
compound="Cc1cc2c([nH]1)/C=C1\\C(=O)Nc3ccc(cc31)-c1c(nn(C)c1C)COCCN(C)C2=O [Cpd. 2]" assay_endpoint=log10(Kd) readout_number=-2.92
compound="Cc1cc2c([nH]1)/C=C1\\C(=O)Nc3ccc(cc31)-c1c(nn(C)c1C)OCCCN(C)C2=O [Cpd. 1]" assay_endpoint=log10(Kd) readout_number=-0.66
compound="Cc1cc2c([nH]1)/C=C1\\C(=O)Nc3c(Cl)cc(cc31)-c1c(nn(C)c1C)COC[C@@H](C)N(C)C2=O [compound 12]" assay_endpoint=log10(Kd) readout_number=-2.89
compound="Cc1nc2c([nH]1)/C=C1\\C(=O)Nc3c(Cl)cc(cc31)-c1cn(C)nc1COC[C@@H](C)N(C)C2=O [Cpd. 8]" assay_endpoint=log10(Kd) readout_number=-0.77

---

Tested on: YES
MEASUREMENT_PROTOCOL: KINOMEscan kinase binding assay
REPORTED_CONDITIONS: at 1 μM
ASSAY_ENDPOINT: % Ctrl

compound="Cc1cc2c([nH]1)/C=C1\\C(=O)Nc3ccc(cc31)-c1c(nn(C)c1C)COCCN(C)C2=O [Cpd. 2]" measured_on=YES assay_endpoint="% Ctrl" result=100%
compound="C[C@@H]1COCc2nn(C)cc2-c2cc(Cl)c3c(c2)/C(=C/c2[nH]ccc2C(=O)N1)C(=O)N3 [Cpd. 4]" measured_on=YES assay_endpoint="% Ctrl" result=95%
compound="Cc1cc2c([nH]1)/C=C1\\C(=O)Nc3ccc(cc31)-c1c(nn(C)c1C)OCCCN(C)C2=O [Cpd. 1]" measured_on=YES assay_endpoint="% Ctrl" result=100%
compound="Cc1cc2c([nH]1)/C=C1\\C(=O)Nc3c(Cl)cc(cc31)-c1cn(C)nc1COC[C@@H](C)NC2=O [Cpd. 3]" measured_on=YES assay_endpoint="% Ctrl" result=99%
compound="Cc1cc2c([nH]1)/C=C1\\C(=O)Nc3c(Cl)cc(cc31)-c1cn(C)nc1COC[C@@H](C)N(C)C2=O [Cpd. 5]" measured_on=YES assay_endpoint="% Ctrl" result=86%

---

System: PYK2
MEASUREMENT_PROTOCOL: KINOMEscan kinase binding assay
REPORTED_CONDITIONS: at 1 μM
ASSAY_ENDPOINT: % Ctrl (%)

smiles_structure=Cc1cc2c([nH]1)/C=C1\C(=O)Nc3c(Cl)cc(cc31)-c1cn(C)nc1COC[C@@H](C)N(C)C2=O readout_number=83
smiles_structure=Cc1cc2c([nH]1)/C=C1\C(=O)Nc3ccc(cc31)-c1c(nn(C)c1C)COCCN(C)C2=O readout_number=100
smiles_structure=Cc1cc2c([nH]1)/C=C1\C(=O)Nc3c(Cl)cc(cc31)-c1cn(C)nc1COC[C@@H](C)NC2=O readout_number=94
smiles_structure=Cc1cc2c([nH]1)/C=C1\C(=O)Nc3ccc(cc31)-c1c(nn(C)c1C)OCCCN(C)C2=O readout_number=100
smiles_structure=C[C@@H]1COCc2nn(C)cc2-c2cc(Cl)c3c(c2)/C(=C/c2[nH]ccc2C(=O)N1)C(=O)N3 readout_number=92

---

System: EPHA7
MEASUREMENT_PROTOCOL: KINOMEscan kinase binding assay
REPORTED_CONDITIONS: at 1 μM
ASSAY_ENDPOINT: % Ctrl (%)

compound="C[C@@H]1COCc2nn(C)cc2-c2cc(Cl)c3c(c2)/C(=C/c2[nH]ccc2C(=O)N1)C(=O)N3 [Cpd. 4]" assay_endpoint="% Ctrl" readout_number=100
compound="Cc1cc2c([nH]1)/C=C1\\C(=O)Nc3ccc(cc31)-c1c(nn(C)c1C)COCCN(C)C2=O [Cpd. 2]" assay_endpoint="% Ctrl" readout_number=89
compound="Cc1cc2c([nH]1)/C=C1\\C(=O)Nc3c(Cl)cc(cc31)-c1cn(C)nc1COC[C@@H](C)N(C)C2=O [Cpd. 5]" assay_endpoint="% Ctrl" readout_number=98
compound="Cc1cc2c([nH]1)/C=C1\\C(=O)Nc3ccc(cc31)-c1c(nn(C)c1C)OCCCN(C)C2=O [Cpd. 1]" assay_endpoint="% Ctrl" readout_number=91
compound="Cc1cc2c([nH]1)/C=C1\\C(=O)Nc3c(Cl)cc(cc31)-c1cn(C)nc1COC[C@@H](C)NC2=O [Cpd. 3]" assay_endpoint="% Ctrl" readout_number=100

---

Listed here are compounds together with their documented % Ctrl.
Tested on: EPHB1
MEASUREMENT_PROTOCOL: KINOMEscan kinase binding assay
REPORTED_CONDITIONS: at 1 μM
ASSAY_ENDPOINT: % Ctrl (%)

smiles_structure=Cc1cc2c([nH]1)/C=C1\C(=O)Nc3ccc(cc31)-c1c(nn(C)c1C)OCCCN(C)C2=O measurement_unit=% readout_number=87
smiles_structure=Cc1cc2c([nH]1)/C=C1\C(=O)Nc3c(Cl)cc(cc31)-c1cn(C)nc1COC[C@@H](C)N(C)C2=O measurement_unit=% readout_number=92
smiles_structure=C[C@@H]1COCc2nn(C)cc2-c2cc(Cl)c3c(c2)/C(=C/c2[nH]ccc2C(=O)N1)C(=O)N3 measurement_unit=% readout_number=97
smiles_structure=Cc1cc2c([nH]1)/C=C1\C(=O)Nc3c(Cl)cc(cc31)-c1cn(C)nc1COC[C@@H](C)NC2=O measurement_unit=% readout_number=100
smiles_structure=Cc1cc2c([nH]1)/C=C1\C(=O)Nc3ccc(cc31)-c1c(nn(C)c1C)COCCN(C)C2=O measurement_unit=% readout_number=99
